System: Cryptococcus neoformans
TEST_SUMMARY: Antifungal activity against Cryptococcus neoformans ATCC 90113 after 70 to 74 hrs by CLSI method
Format: functional, organism-based
TEST_CONDITIONS: Cryptococcus neoformans, ATCC 90113
MEASURE: MIC (µg/mL)
Respond with the bare value in µg/mL.

Some compounds with known MIC results, for comparison:
Cc1ccc(-c2nc(C[C@H](NC(=O)[C@@H](N)CCCNC(=N)N)C(=O)N[C@@H](CCCNC(=N)N)C(=O)NCc3ccccc3)c[nH]2)cc1 :: 0.63
COC(=O)[C@H](CCCNC(=N)N)NC(=O)[C@H](Cc1c[nH]c(-c2ccc(-c3ccccc3)cc2)n1)NC(=O)[C@@H](N)CCCNC(=N)N :: 1.25
COC(=O)[C@H](CCCNC(=N)N)NC(=O)[C@H](Cc1c[nH]c(-c2ccc(C(C)(C)C)cc2)n1)NC(=O)[C@@H](N)CCCNC(=N)N :: 1.25
C[C@@H]1[C@H](O)[C@@H](C)/C=C/C=C/C=C/C=C/C=C/C=C/C=C/[C@H](O[C@@H]2O[C@H](C)[C@@H](O)[C@H](N)[C@@H]2O)C[C@@H]2O[C@](O)(C[C@@H](O)C[C@@H](O)[C@H](O)CC[C@@H](O)C[C@@H](O)CC(=O)O[C@H]1C)C[C@H](O)[C@H]2C(=O)O :: 1.25
CC(C)(C)OC(=O)N[C@@H](CCCNC(=N)N)C(=O)N[C@@H](Cc1c[nH]c(-c2ccc(C(C)(C)C)cc2)n1)C(=O)N[C@@H](CCCNC(=N)N)C(=O)NCc1ccccc1 :: 0.63

Value lookup for MIC; key = N=C(N)NCCC[C@H](NC(=O)[C@H](Cc1c[nH]c(-c2ccc(-c3ccccc3)cc2)n1)NC(=O)[C@@H](N)CCCNC(=N)N)C(=O)NCc1ccccc1 0.16

====

Listed compounds paired with reported selectivity ratio
TEST_SUMMARY: Selectivity index, ratio of cytotoxicity for human SKOV3 cells to IC50 for Cryptococcus neoformans ATCC 90113
Assay type: toxicity, cell-based, SK-OV-3
TEST_CONDITIONS: read-out: Selectivity Index

Some compounds with known selectivity ratio results, for comparison:
COc1ccc(-c2nc(C[C@H](NC(=O)[C@H](CCCNC(=N)N)NC(=O)OC(C)(C)C)C(=O)N[C@@H](CCCNC(=N)N)C(=O)NCc3ccccc3)c[nH]2)cc1 :: > 14.7
COC(=O)[C@H](CCCNC(=N)N)NC(=O)[C@H](Cc1c[nH]c(-c2ccc(-c3ccccc3)cc2)n1)NC(=O)[C@H](CCCNC(=N)N)NC(=O)OC(C)(C)C :: > 12.5
COC(=O)[C@H](CCCNC(=N)N)NC(=O)[C@H](Cc1c[nH]c(-c2ccc(C(C)(C)C)cc2)n1)NC(=O)[C@H](CCCNC(=N)N)NC(=O)OC(C)(C)C :: > 14.1
CC(C)(C)c1ccc(-c2nc(C[C@H](NC(=O)[C@@H](N)CCCNC(=N)N)C(=O)N[C@@H](CCCNC(=N)N)C(=O)NCc3ccccc3)c[nH]2)cc1 :: > 143
COC(=O)[C@H](CCCNC(=N)N)NC(=O)[C@H](Cc1c[nH]c(-c2ccc(-c3ccccc3)cc2)n1)NC(=O)[C@@H](N)CCCNC(=N)N :: > 16.9

Now, please, on to the next compound.
Value lookup for selectivity ratio; key = N=C(N)NCCC[C@H](NC(=O)[C@H](Cc1c[nH]c(-c2ccccc2)n1)NC(=O)[C@@H](N)CCCNC(=N)N)C(=O)NCc1ccccc1 > 13.7

====

System: Vero
TEST_SUMMARY: Cytotoxicity against African green monkey Vero cells assessed as cell viability after 48 hrs by neutral red uptake assay
Format: cell-based
TEST_CONDITIONS: chlorocebus sabaeus
Peptide text beside a SMILES is read from it. * marks the point of attachment. NHBn = c1ccc(CN*)cc1
MEASURE: Activity

CC(C)(C)c1ccc(-c2nc(C[C@H](NC(=O)[C@@H](N)CCCNC(=N)N)C(=O)N[C@@H](CCCNC(=N)N)C(=O)NCc3ccccc3)c[nH]2)cc1 :: > 10 µg/mL
N=C(N)NCCC[C@H](NC(=O)[C@H](Cc1c[nH]cn1)NC(=O)[C@@H](N)CCCNC(=N)N)C(=O)NCc1ccccc1 (H-Arg-His-Arg-NHBn) :: > 10 µg/mL

API: value(readout=Activity, system=Vero) for record COC(=O)[C@H](CCCNC(=N)N)NC(=O)[C@H](Cc1c[nH]c(-c2ccc(C)cc2)n1)NC(=O)[C@@H](N)CCCNC(=N)N > 10 µg/mL

====

Listed molecules paired with reported selectivity ratio
TEST_SUMMARY: Selectivity index, ratio of cytotoxicity for human SK-MEL cells to IC50 for Cryptococcus neoformans ATCC 90113
Format: toxicity, cell-based
TEST_CONDITIONS: read-out: Selectivity Index
Peptide text beside a SMILES is read from it. * marks the point of attachment. Boc = CC(C)(C)OC(=O)*; NHBn = c1ccc(CN*)cc1

Some molecules with known selectivity ratio results, for comparison:
CC(C)(C)OC(=O)N[C@@H](CCCNC(=N)N)C(=O)N[C@@H](Cc1c[nH]c(-c2ccc(-c3ccccc3)cc2)n1)C(=O)N[C@@H](CCCNC(=N)N)C(=O)NCc1ccccc1 :: > 50
CC(C)(C)OC(=O)N[C@@H](CCCNC(=N)N)C(=O)N[C@@H](Cc1c[nH]cn1)C(=O)N[C@@H](CCCNC(=N)N)C(=O)NCc1ccccc1 (Boc-Arg-His-Arg-NHBn) :: > 1.8
Cc1ccc(-c2nc(C[C@H](NC(=O)[C@H](CCCNC(=N)N)NC(=O)OC(C)(C)C)C(=O)N[C@@H](CCCNC(=N)N)C(=O)NCc3ccccc3)c[nH]2)cc1 :: > 4.6
COC(=O)[C@H](CCCNC(=N)N)NC(=O)[C@H](Cc1c[nH]c(-c2ccc(C(C)(C)C)cc2)n1)NC(=O)[C@H](CCCNC(=N)N)NC(=O)OC(C)(C)C :: > 14.1

Value lookup for selectivity ratio; key = COc1ccc(-c2nc(C[C@H](NC(=O)[C@@H](N)CCCNC(=N)N)C(=O)N[C@@H](CCCNC(=N)N)C(=O)NCc3ccccc3)c[nH]2)cc1 > 23.3

Value lookup for selectivity ratio; key = COC(=O)[C@H](CCCNC(=N)N)NC(=O)[C@H](Cc1c[nH]c(-c2ccc(OC)cc2)n1)NC(=O)[C@@H](N)CCCNC(=N)N > 2.5

====

System: SK-MEL
TEST_SUMMARY: Cytotoxicity against human SK-MEL cells assessed as cell viability after 48 hrs by neutral red uptake assay
Assay type: cell-based
Peptide text beside a SMILES is read from it.
Listed molecules paired with reported Activity

COC(=O)[C@H](CCCNC(=N)N)NC(=O)[C@H](Cc1c[nH]c(-c2ccc(C)cc2)n1)NC(=O)[C@@H](N)CCCNC(=N)N :: > 10 µg/mL
COc1ccc(-c2nc(C[C@H](NC(=O)[C@H](CCCNC(=N)N)NC(=O)OC(C)(C)C)C(=O)N[C@@H](CCCNC(=N)N)C(=O)NCc3ccccc3)c[nH]2)cc1 :: > 10 µg/mL
CC(C)(C)OC(=O)N[C@@H](CCCNC(=N)N)C(=O)N[C@@H](Cc1c[nH]c(-c2ccc(-c3ccccc3)cc2)n1)C(=O)N[C@@H](CCCNC(=N)N)C(=O)NCc1ccccc1 :: > 10 µg/mL

Value lookup for Activity; key = COC(=O)[C@H](CCCNC(=N)N)NC(=O)[C@H](Cc1c[nH]c(-c2ccc(C)cc2)n1)NC(=O)[C@H](CCCNC(=N)N)NC(=O)OC(C)(C)C > 10 µg/mL

Value lookup for Activity; key = CC(C)(C)OC(=O)N[C@@H](CCCNC(=N)N)C(=O)N[C@@H](Cc1c[nH]c(-c2ccc(C(C)(C)C)cc2)n1)C(=O)N[C@@H](CCCNC(=N)N)C(=O)NCc1ccccc1 > 10 µg/mL

Value lookup for Activity; key = N=C(N)NCCC[C@H](NC(=O)[C@H](Cc1c[nH]c(-c2ccccc2)n1)NC(=O)[C@@H](N)CCCNC(=N)N)C(=O)NCc1ccccc1 > 10 µg/mL

Value lookup for Activity; key = COC(=O)[C@H](CCCNC(=N)N)NC(=O)[C@H](Cc1c[nH]cn1)NC(=O)[C@@H](N)CCCNC(=N)N (H-Arg-His-Arg-OMe) > 10 µg/mL

Value lookup for Activity; key = N=C(N)NCCC[C@H](NC(=O)[C@H](Cc1c[nH]c(-c2ccc(-c3ccccc3)cc2)n1)NC(=O)[C@@H](N)CCCNC(=N)N)C(=O)NCc1ccccc1 > 10 µg/mL

====

Test system: LLC-PK1
TEST_SUMMARY: Cytotoxicity against pig LLC-PK1 cells assessed as cell viability after 48 hrs by neutral red uptake assay
Type: cell-based, Sus scrofa
TEST_CONDITIONS: llc-pk1, 48 h
MEASURE: Activity

Some compounds with known Activity results, for comparison:
CC(C)(C)OC(=O)N[C@@H](CCCNC(=N)N)C(=O)N[C@@H](Cc1c[nH]c(-c2ccc(-c3ccccc3)cc2)n1)C(=O)N[C@@H](CCCNC(=N)N)C(=O)NCc1ccccc1 :: > 10 µg/mL
CC(C)(C)OC(=O)N[C@@H](CCCNC(=N)N)C(=O)N[C@@H](Cc1c[nH]c(-c2ccc(C(C)(C)C)cc2)n1)C(=O)N[C@@H](CCCNC(=N)N)C(=O)NCc1ccccc1 :: > 10 µg/mL

API: value(readout=Activity, system=LLC-PK1) for record COC(=O)[C@H](CCCNC(=N)N)NC(=O)[C@H](Cc1c[nH]c(-c2ccc(C(C)(C)C)cc2)n1)NC(=O)[C@@H](N)CCCNC(=N)N > 10 µg/mL
